protocol-description: Transport of morphine and M6G in the vascularized proximal tubule MPS (VPT-MPS)
Type: in vitro ADME, human
conditions: human, with probenecid (1 mM) and tetraethylammonium (1 mM), Donor2; VPT-MPS; read-out: Permeability
Protocol: The inner chamber of dual-channel MPS devices (Duplo, Fig. 1) (https://www.nortisbio.com/) was dried, filled with 6 mg/mL of rat tail collagen I, and left overnight to allow the collagen I matrix to solidify. The mandrels of the MPS platforms were then removed, leaving two hollow channels through the collagen I matrix. […] The cells were counted and resuspended with PTECs culture media at a concentration of 20 × 10^6 cells/mL and 2–2.5 µL were injected into the collagen IV-coated channel. […]
property-label: Papp at 24 h, 1 µM (×10⁻⁶ cm/s)
Numbers only, in ×10⁻⁶ cm/s.

Query: Requested read-out: Papp at 24 h, 1 µM. Entry: CN1CC[C@]23c4c5ccc(O)c4O[C@H]2[C@@H](O[C@@H]2O[C@H](C(=O)O)[C@@H](O)[C@H](O)[C@H]2O)C=C[C@H]3[C@H]1C5 [M6G, morphine-6-glucuronide]
Reply: 9.74
